Biological target: Histamine H1 receptor (Homo sapiens, UniProt P35367)
Sequence (P35367 whole entry): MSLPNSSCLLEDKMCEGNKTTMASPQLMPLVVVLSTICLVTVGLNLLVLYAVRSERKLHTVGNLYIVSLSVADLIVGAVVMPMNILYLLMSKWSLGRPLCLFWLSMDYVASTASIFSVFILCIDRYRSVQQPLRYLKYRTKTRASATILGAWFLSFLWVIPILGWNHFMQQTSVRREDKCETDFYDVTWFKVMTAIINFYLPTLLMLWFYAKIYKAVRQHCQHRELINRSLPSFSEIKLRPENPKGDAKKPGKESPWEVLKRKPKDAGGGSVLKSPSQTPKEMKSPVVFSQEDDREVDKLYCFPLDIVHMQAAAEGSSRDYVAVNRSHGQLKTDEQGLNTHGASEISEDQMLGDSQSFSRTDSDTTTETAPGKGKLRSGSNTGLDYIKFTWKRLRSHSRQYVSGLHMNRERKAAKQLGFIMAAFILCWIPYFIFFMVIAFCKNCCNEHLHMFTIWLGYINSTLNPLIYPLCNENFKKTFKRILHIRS

COMPOUND | STUDY TARGET | UNIT OF MEASUREMENT | IC50
CN1C2CCCC1CC(Nc1ccccc1Br)C2 (stereo unspecified) | Histamine H1 receptor (Homo sapiens, UniProt P35367) | nM | 201

* * *

pKi reference
Target: Sigma intracellular receptor 2 (Bos taurus, UniProt Q3MHW7)
Sequence (Q3MHW7 whole entry): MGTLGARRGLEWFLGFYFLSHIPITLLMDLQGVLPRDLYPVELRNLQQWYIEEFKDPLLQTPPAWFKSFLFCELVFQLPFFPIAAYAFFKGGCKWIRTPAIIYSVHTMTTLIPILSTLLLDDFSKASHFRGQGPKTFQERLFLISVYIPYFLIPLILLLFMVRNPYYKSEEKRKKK
Assay: Displacement of [3H]-DTG from calf hippocampus sigma 2 receptor assessed as inhibition constant
pKi: −log10 of the molar value.
TEST READOUT: pKi

MOLECULE | STUDY TARGET | ASSAY VALUE
CC[C@H]1C[C@@H]2C[C@H]3c4[nH]c5ccc(OC)cc5c4CC[N@@](C2)[C@@H]13 | Sigma intracellular receptor 2 (Bos taurus, UniProt Q3MHW7) | 9.40
COCC[C@H]1C[C@H]2CN3CCc4c([nH]c5ccc(OC)cc45)[C@](C(=O)OC)(C2)[C@H]13 (racemic) | Sigma intracellular receptor 2 (Bos taurus, UniProt Q3MHW7) | 7.89
